Origin of measurements: patent US10975119B2

# target_system: Caspase-6 (Homo sapiens)
# Construct: mixing the compounds with the respective active caspases; purchased BioVision K156-100
# procedure_text: Caspase-6 inhibitor screening assay (BioVision kit, VEID-AFC)
# Assay type: biochemical
# measurement_context: read-out: % Inhibition at 10 uM Casp6
Where a name gives a salt, the structure may show the parent alone.
readout: inhibition at 10 µM (%)

>  <molecule>
CC(C)[C@H](NC(=O)c1ccc2ccccc2n1)C(=O)N[C@H](/C=C/S(C)(=O)=O)CC(=O)O

>  <readout>
inhibition at 10 µM

>  <assay_value>
0

$$$$

1: CC(C)[C@H](NC(=O)OCc1ccccc1)C(=O)N[C@H](/C=C/S(C)(=O)=O)CC(=O)O
2: CS(=O)(=O)/C=C/[C@H](CC(=O)O)NC(=O)C1CCCN1C(=O)[C@@H](NC(=O)[C@H](CC(=O)O)NC(=O)OCc1ccccc1)C1CC1 (stereo in doubt)
3: CCOC(=O)/C=C/[C@H](CC(=O)O)NC(=O)[C@@H](NC(=O)[C@@H](NC(=O)[C@H](CC(=O)O)NC(=O)OCc1ccccc1)c1ccccc1)C(C)C
Asked: Ascending sort, inhibition at 10 µM. Give me the labels in the order the question wants.
Given back: 1, 2, 3

I: CCOC(=O)/C=C/[C@@H](N)CC(=O)O [Compound 44, Asp ethyl vinyl ester tosyl salt]
II: CCOC(=O)/C=C/[C@H](CC(=O)O)NC(=O)[C@H]1CCCN1C(=O)[C@@H](NC(=O)c1ccc2ccccc2n1)C(C)(C)C
III: CC(C)(C)OC(=O)CC[C@H](NC(=O)OC(C)(C)C)C(=O)N[C@H](/C=C/S(C)(=O)=O)CC(=O)OC(C)(C)C
Asked: Sort (3 molecules) by inhibition at 10 µM: min first. List the labels in the requested order.
Given back: I, III, II
(I: 0%, III: 1%, II: 3%)

I: CS(=O)(=O)/C=C/[C@H](CC(=O)O)NC(=O)[C@H]1CCCN1C(=O)[C@@H](NC(=O)[C@H](CC(=O)O)NC(=O)OCc1ccccc1)c1ccccc1
II: CC(C)(C)[C@H](NC(=O)c1ccc(N)c(Cl)c1)C(=O)N1CCCC1C(=O)N[C@H](/C=C/S(C)(=O)=O)CC(=O)O (stereo in doubt)
Asked: I'd appreciate it if you could identify which of I and II has the greater inhibition at 10 µM. Give the chosen item's label as your response.
Given back: II

----------
# target_system: Caspase-9 (Homo sapiens, UniProt P55211)
# Construct: purchased BioVision K159-100
# Sequence (P55211 1-315 limits assumed): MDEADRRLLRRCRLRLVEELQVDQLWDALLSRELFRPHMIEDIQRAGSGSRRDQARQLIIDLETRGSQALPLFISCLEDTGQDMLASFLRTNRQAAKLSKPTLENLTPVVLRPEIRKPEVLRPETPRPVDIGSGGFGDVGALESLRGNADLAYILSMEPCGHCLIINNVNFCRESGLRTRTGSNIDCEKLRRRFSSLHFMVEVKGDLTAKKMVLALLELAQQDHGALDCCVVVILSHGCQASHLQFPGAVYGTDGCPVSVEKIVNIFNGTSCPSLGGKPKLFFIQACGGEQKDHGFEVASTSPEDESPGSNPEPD
# Sequence (P55211 331-416 limits assumed): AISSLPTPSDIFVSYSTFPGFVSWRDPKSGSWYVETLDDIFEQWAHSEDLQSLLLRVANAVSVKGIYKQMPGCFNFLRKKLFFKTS
# procedure_text: Caspase-9 inhibitor screening assay (BioVision kit, LEHD-AFC)
# Format: biochemical
# measurement_context: read-out: IC50 Casp9
readout: IC50 (µM)

a: CC(C)(C)[C@H](NC(=O)c1ccc(N)c(Cl)c1)C(=O)N1CCCC1C(=O)N[C@H](/C=C/S(C)(=O)=O)CC(=O)O (stereo in doubt)
b: CC(C)[C@H](NC(=O)OCc1ccccc1)C(=O)N[C@H](/C=C(\Cl)S(C)(=O)=O)CC(=O)O
c: CCOC(=O)/C=C/[C@H](CC(=O)O)NC(=O)[C@@H](NC(=O)[C@@H](NC(=O)[C@H](CC(=O)O)NC(=O)OCc1ccccc1)c1ccccc1)C(C)C
Asked: Please put the 3 compounds above in a list ordered by falling IC50. A complete answer lists every label in the requested sequence.
Given back: b, a, c
(b: 50.9 µM, a: 2.3 µM, c: 1 µM)

----------
# target_system: Caspase-9 (Homo sapiens, UniProt P55211)
# Construct: purchased BioVision K159-100
# Sequence (P55211 1-315 limits assumed): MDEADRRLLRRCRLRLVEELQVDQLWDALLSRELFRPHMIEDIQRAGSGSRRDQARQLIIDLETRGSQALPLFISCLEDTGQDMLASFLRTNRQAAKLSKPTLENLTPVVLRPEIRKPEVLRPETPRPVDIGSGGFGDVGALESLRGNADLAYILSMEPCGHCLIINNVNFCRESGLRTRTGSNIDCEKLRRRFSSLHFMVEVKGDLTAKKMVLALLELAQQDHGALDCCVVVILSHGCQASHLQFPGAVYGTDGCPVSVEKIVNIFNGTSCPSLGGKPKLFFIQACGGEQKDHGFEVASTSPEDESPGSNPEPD
# Sequence (P55211 331-416 limits assumed): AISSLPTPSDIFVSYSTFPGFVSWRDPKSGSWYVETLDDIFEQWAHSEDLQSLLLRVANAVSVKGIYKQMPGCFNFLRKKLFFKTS
# procedure_text: Caspase-9 inhibitor screening assay (BioVision kit, LEHD-AFC)
# Format: biochemical
# measurement_context: 10 uM; read-out: % Inhibition at 10 uM Casp9
readout: inhibition at 10 µM (%)

Some compounds with recorded inhibition at 10 µM:
>  <compound>
CC(C)[C@H](NC(=O)[C@@H](N)Cc1ccc(O)cc1)C(=O)N[C@@H](C)C(=O)N[C@H](/C=C/S(C)(=O)=O)CC(=O)O

>  <unit_string>
%

>  <inhibition at 10 µM>
0

$$$$
>  <compound>
CC(C)(C)[C@H](NC(=O)[C@H](CC(=O)O)NC(=O)OCc1ccccc1)C(=O)N1CCCC1C(=O)N[C@H](/C=C/S(C)(=O)=O)CC(=O)O (stereo in doubt)

>  <unit_string>
%

>  <inhibition at 10 µM>
95

$$$$
>  <compound>
CCOC(=O)/C=C/[C@H](CC(=O)O)NC(=O)[C@@H](NC(=O)[C@@H](NC(=O)[C@H](CC(=O)O)NC(=O)OCc1ccccc1)c1ccccc1)C(C)C

>  <unit_string>
%

>  <inhibition at 10 µM>
92

$$$$

a: CS(=O)(=O)/C=C/[C@H](CC(=O)O)NC(=O)[C@H]1CCCN1C(=O)[C@@H](NC(=O)[C@H](CC(=O)O)NC(=O)OCc1ccccc1)c1ccccc1
b: CCC(C)[C@H](NC(=O)[C@H](CCC(=O)O)NC(=O)[C@@H](NC(=O)OCc1ccccc1)C(C)C)C(=O)N[C@H](/C=C/S(C)(=O)=O)CC(=O)O (stereo partly shown)
c: CC(C)(C)[C@H](NC(=O)c1ccc2ncccc2n1)C(=O)N1CCCC1C(=O)N[C@H](/C=C/S(C)(=O)=O)CC(=O)O (stereo in doubt)
d: CC(C)(C)[C@H](NC(=O)c1ccc2ccccc2n1)C(=O)N1CCC[C@@H]1C(=O)N[C@H](/C=C/S(C)(=O)=O)CC(=O)O
Asked: Ordering: ascending inhibition at 10 µM. Reply with the labels, ordered as the question asks.
Given back: d, c, a, b
(d: 1%, c: 24%, a: 48%, b: 82%)

P: CC(C)(C)[C@H](NC(=O)c1ccc2ncccc2c1)C(=O)N1CCCC1C(=O)N[C@H](/C=C/S(C)(=O)=O)CC(=O)O (stereo in doubt)
Q: CC(C)[C@H](NC(=O)[C@H](Cc1cn(C)c2ccccc12)NC(=O)[C@H](CC(=O)O)NC(=O)OCc1ccccc1)C(=O)N[C@H](/C=C/S(C)(=O)=O)CC(=O)O
R: CS(=O)(=O)/C=C/[C@H](CC(=O)O)NC(=O)[C@H]1CCC(=O)N1
Asked: Put the compounds in ascending order of inhibition at 10 µM. Form entry: labels listed in requested order.
Given back: R, Q, P
(R: 0%, Q: 39%, P: 76%)

----------
# target_system: Caspase-6 (Homo sapiens, UniProt P55212)
# Construct: mixing the compounds with the respective active caspases; purchased BioVision K156-100
# Sequence (P55212 24-179 limits assumed): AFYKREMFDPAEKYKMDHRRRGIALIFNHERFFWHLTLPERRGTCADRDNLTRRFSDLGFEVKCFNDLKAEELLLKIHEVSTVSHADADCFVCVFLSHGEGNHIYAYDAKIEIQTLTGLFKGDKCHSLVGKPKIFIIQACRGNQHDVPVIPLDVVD
# Sequence (P55212 194-293 limits assumed): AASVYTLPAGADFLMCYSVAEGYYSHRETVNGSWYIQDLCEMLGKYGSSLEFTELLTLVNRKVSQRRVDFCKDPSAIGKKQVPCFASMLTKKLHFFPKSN
# procedure_text: Caspase-6 inhibitor screening assay (BioVision kit, VEID-AFC)
# Type: biochemical
# measurement_context: read-out: inhibition (IC50) against Caspase-6
readout: IC50 (nM)

>  <compound>
CCC(C)[C@H](NC(=O)[C@H](CCC(=O)O)NC(=O)[C@@H](NC(=O)OCc1ccccc1)C(C)C)C(=O)N[C@H](/C=C(\Cl)S(C)(=O)=O)CC(=O)O (some centres unmarked) [Compound 123]

>  <IC50, nM>
229

$$$$
>  <compound>
CCOC(=O)/C=C/[C@H](CC(=O)O)NC(=O)[C@@H](NC(=O)[C@H](CCC(=O)O)NC(=O)[C@@H](NC(=O)OCc1ccccc1)C(C)C)C(C)CC (stereo partly drawn) [Compound 124, Z-Val-Glu-Ile-Asp-Ethyl Vinyl ester]

>  <IC50, nM>
293

$$$$
